Recorded measurements of EC50, one per entry
- ASSAYED_SYSTEM: SST2 (Homo sapiens, UniProt P30874)
- Sequence (P30874 whole entry): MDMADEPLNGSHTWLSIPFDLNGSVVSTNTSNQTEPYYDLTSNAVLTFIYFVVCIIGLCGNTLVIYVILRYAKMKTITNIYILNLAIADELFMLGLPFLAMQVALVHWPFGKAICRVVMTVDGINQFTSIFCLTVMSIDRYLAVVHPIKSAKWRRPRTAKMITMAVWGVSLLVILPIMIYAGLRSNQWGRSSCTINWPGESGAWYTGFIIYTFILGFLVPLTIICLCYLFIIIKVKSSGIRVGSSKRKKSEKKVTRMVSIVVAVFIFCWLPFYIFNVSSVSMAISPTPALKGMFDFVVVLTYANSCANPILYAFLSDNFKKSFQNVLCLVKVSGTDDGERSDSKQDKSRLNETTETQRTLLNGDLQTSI
- EXPERIMENT: Hit Hunter cAMP XS+ assay, SST2 activation via Gi (reduction of forskolin-stimulated cAMP)
- Assay type: cell-based
- CONDITION_DESCRIPTION: reduction of forskolin-stimulated cAMP; 4-parameter logistic fit; read-out: SST2 pEC50 (converted)
*1 amine or outer side, *2 acyl side, *3 side chain or, on linkers, in order; H or OH if unused. Where a SMILES comes first, the peptide text is derived from it. Side-chain parts run from the residue outwards. [ ]: non-standard residue; d: D form. The star is where a group is joined. Ala(piperidin-4-yl) = O=C([C@H](CC1CCN([*:3])CC1)N[*:1])[*:2]; Ala(piperazin-1-yl) = N[C@@H](CN1CCNCC1)C(=O)O; Phe(4-Cl) = N[C@@H](Cc1ccc(Cl)cc1)C(=O)O; Morpholine(3S-CO) = O=C(O)[C@@H]1COCCN1; Ethylenediamine = C(CN[*:2])N[*:1]; Hyp = O=C(O)[C@@H]1C[C@@H](O)CN1; hPhe = N[C@@H](CCc1ccccc1)C(=O)O; Tic = O=C(O)[C@@H]1Cc2ccccc2CN1; CO = O=C([*:1])[*:2]; Bn = c1ccc(C*)cc1
# unit: nM | format: bare number

Query: Fill in reported EC50 for this entry: O=C1N[C@@H](Cc2ccc(OCc3ccccc3)cc2)C(=O)N2Cc3ccccc3C[C@H]2C(=O)N2CCOC[C@H]2C(=O)N[C@@H](CCc2ccccc2)C(=O)N[C@H](Cc2c[nH]c3ccccc23)C(=O)N[C@H]1CN1CCNCC1 [Example 31] (cyclo([Tic][Morpholine(3S-CO)][hPhe][dW][Ala(piperazin-1-yl)]Y(Bn)))
Reply: 200

Query: Answer with the recorded EC50 for the compound listed here: NCCNC(=O)O[C@@H]1C[C@H]2C(=O)N[C@@H](CCc3ccccc3)C(=O)N[C@H](Cc3c[nH]c4ccccc34)C(=O)N[C@@H](CC3CCNCC3)C(=O)N[C@@H](Cc3ccc(OCc4ccccc4)cc3)C(=O)N[C@@H](Cc3ccc(Cl)cc3)C(=O)N2C1 [Example 42] (cyclo([Hyp]([CO-Ethylenediamine])[hPhe][dW][Ala(piperidin-4-yl)]Y(Bn)[Phe(4-Cl)]))
Reply: 12.6
